TARGET_ENTITY: FPR1 (Homo sapiens, UniProt P21462)
Sequence (P21462 whole entry): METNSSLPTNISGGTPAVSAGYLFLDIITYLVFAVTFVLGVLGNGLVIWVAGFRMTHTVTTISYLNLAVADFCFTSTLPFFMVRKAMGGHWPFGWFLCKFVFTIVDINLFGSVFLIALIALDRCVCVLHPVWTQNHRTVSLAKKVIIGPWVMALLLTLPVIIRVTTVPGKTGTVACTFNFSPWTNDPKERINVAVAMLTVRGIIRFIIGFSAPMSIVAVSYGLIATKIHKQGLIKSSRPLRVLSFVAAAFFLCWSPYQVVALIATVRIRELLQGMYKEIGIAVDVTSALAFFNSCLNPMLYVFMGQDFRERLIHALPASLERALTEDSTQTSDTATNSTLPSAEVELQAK
ASSAY_PROTOCOL: Ca2+ mobilization assay in FPR1-HL60 cells
Type: cell-based
CONDITION: read-out: Ca2+ flux FPR1-HL60 efficacy
RECORDED_METRIC: Emax (%)

Field: example entries. Status: answers known.
COMPOUND: Nc1ccc(-c2csc(=O)n2CC(=O)Nc2ccc(Br)cc2)cc1 [compound 10]
UNIT_OF_MEASURE: %
Emax: 80
//
COMPOUND: Cc1csc(=O)n1CC(=O)Nc1ccc(Br)cc1 [9b]
UNIT_OF_MEASURE: %
Emax: 70
//
COMPOUND: O=C(Cn1c(-c2ccc(Cl)cc2)csc1=O)Nc1ccc(Br)cc1 [9g]
UNIT_OF_MEASURE: %
Emax: 75

[A] O=C(Cn1c(-c2cccc(Cl)c2)csc1=O)Nc1ccc(Br)cc1 [9f]
[B] COc1ccc(-c2csc(=O)n2CC(=O)Nc2ccc(Br)cc2)cc1 [9e]
Task: Between A and B , which one has the lower reported Emax value? Your choice should be expressed through its label.
Output: A
